Target desc: UniProt:P33261
Sequence (P33261 whole entry): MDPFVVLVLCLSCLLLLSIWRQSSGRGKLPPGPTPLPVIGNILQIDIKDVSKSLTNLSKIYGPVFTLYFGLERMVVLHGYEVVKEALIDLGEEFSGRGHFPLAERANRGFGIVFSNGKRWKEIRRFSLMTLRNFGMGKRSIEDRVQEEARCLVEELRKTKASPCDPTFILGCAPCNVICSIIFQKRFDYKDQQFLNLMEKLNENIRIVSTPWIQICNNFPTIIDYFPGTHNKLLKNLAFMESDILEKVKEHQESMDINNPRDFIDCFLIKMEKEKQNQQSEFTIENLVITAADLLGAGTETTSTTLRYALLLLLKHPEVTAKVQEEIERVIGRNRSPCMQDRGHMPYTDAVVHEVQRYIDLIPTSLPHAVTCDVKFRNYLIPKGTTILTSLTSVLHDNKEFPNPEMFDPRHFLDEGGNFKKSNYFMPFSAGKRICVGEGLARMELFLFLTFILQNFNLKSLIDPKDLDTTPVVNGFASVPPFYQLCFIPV
Measured metric: IC50
Returns: string containing the numeric result and its unit.

Task: Tell us which IC50 value is on record for Cc1c(NC(=O)OC[C@@H]2COCCN2)cn2ncnc(Nc3ccc4c(cnn4Cc4cccc(F)c4)c3)c12
Result: 10 µM

---

Procedure summary: Volume of distribution at steady state in cynomolgus monkey at 5 mg/kg, iv
Format: ADME, organism-based, Macaca fascicularis
Design: dose 5 mg/kg, route intravenous
Experimental parameters: in vivo, read-out: Vdss
Measured metric: Vd (L/kg)
Value expressed in L/kg; do not type the unit.

Task: Find the measured Vd of Cc1c(NC(=O)OC[C@@H]2COCCN2)cn2ncnc(Nc3ccc4c(cnn4Cc4cccc(F)c4)c3)c12 [AC-480] and report it.
Result: 4

---

Procedure summary: Tmax in dog at 25 mg/kg, po
Assay type: ADME, organism-based, Canis lupus familiaris
Set-up: dose 25 mg/kg, route oral
Experimental parameters: in vivo
Measured metric: Tmax (h)
Please state the figure in h; there is no need to write the unit.

Task: Specify Tmax for Cc1c(NC(=O)OC[C@@H]2COCCN2)cn2ncnc(Nc3ccc4c(cnn4Cc4cccc(F)c4)c3)c12 and stop.
Result: 2.3

---

Procedure summary: Clearance in cynomolgus monkey at 5 mg/kg, iv
Format: ADME, organism-based, Macaca fascicularis
Set-up: dose 5 mg/kg, route intravenous
Experimental parameters: in vivo
Measured metric: clearance (mL/min/kg)
Express it in mL/min/kg; write the number only.

Task: Give clearance for Cc1c(NC(=O)OC[C@@H]2COCCN2)cn2ncnc(Nc3ccc4c(cnn4Cc4cccc(F)c4)c3)c12 [AC-480]
Result: 10.5

---

Procedure summary: Cmax in mouse at 120 mg/kg, po
Assay type: ADME, organism-based
Set-up: dose 120 mg/kg, route oral
Experimental parameters: in vivo
Measured metric: Cmax (µM)
Quick reminder: number only, in µM, skip the unit.

Task: Look up and report measured Cmax for this entry: Cc1c(NC(=O)OC[C@@H]2COCCN2)cn2ncnc(Nc3ccc4c(cnn4Cc4cccc(F)c4)c3)c12 [AC-480]
Result: 18

---

Procedure summary: Tmax in mouse at 120 mg/kg, po
Format: ADME, organism-based
Set-up: dose 120 mg/kg, route oral
Experimental parameters: in vivo
Measured metric: Tmax (h)
Write it as a number; the unit h goes unstated.

Task: Quote Tmax reported for Cc1c(NC(=O)OC[C@@H]2COCCN2)cn2ncnc(Nc3ccc4c(cnn4Cc4cccc(F)c4)c3)c12 please.
Result: 1

---

Procedure summary: Mean residence time in rat at 2.5 mg/kg, iv
Assay type: ADME, organism-based
Design: dose 2.5 mg/kg, route intravenous
Experimental parameters: in vivo
Measured metric: MRT (h)
Numbers only; they are read as h.

Task: Read the entry Cc1c(NC(=O)OC[C@@H]2COCCN2)cn2ncnc(Nc3ccc4c(cnn4Cc4cccc(F)c4)c3)c12 and write its reported MRT.
Result: 2.8

---

Procedure summary: Cmax in BALB/c mouse at 50 mg/kg, po
Type: ADME, organism-based
Parameters: dose 50 mg/kg, route oral
Experimental parameters: in vivo
Quick rule: Cmax of at least 500 nM means class 1, below that means class 0.

CCC1=C2C(Nc3ccc4c(cnn4Cc4ccccc4)c3)=NC=NC2N=C1NC(=O)OCCN1CCOCC1 (configuration not stated) : class 1
CCc1c(NC(=O)OC[C@@H]2COCCN2)cn2ncnc(Nc3ccc4c(cnn4Cc4ccccc4)c3)c12 : class 1
CCC1=C2C(Nc3ccc4c(cnn4Cc4ccccc4)c3)=NC=NC2N=C1NC(=O)OCC1CCNCC1 (configuration not stated) : class 0
CCC1=C2C(Nc3ccc4c(cnn4Cc4ccccc4)c3)=NC=NC2N=C1NC(=O)OCC1CCCCN1 (configuration not stated) : class 1
CCC1=C2C(Nc3ccc4c(cnn4Cc4ccccc4)c3)=NC=NC2N=C1NC(=O)O[C@H]1CC[C@@](C)(N)CC1 (some centres not stated) : class 0
CCC1=C2C(Nc3ccc4c(cnn4Cc4ccccc4)c3)=NC=NC2N=C1NC(=O)OCCn1ccnc1 (configuration not stated) : class 1

Task: Please indicate if the recorded Cmax for CCC1=C2C(Nc3ccc4c(cnn4Cc4cccc(F)c4)c3)=NC=NC2N=C1NC(=O)OC[C@@H]1COCCN1 (some centres not stated) meets or exceeds 500 nM.
Result: class 1

Task: Given the entry CCC1=C2C(Nc3ccc4c(cnn4Cc4ccccc4)c3)=NC=NC2N=C1NC(=O)OCCN1CCNCC1 (configuration not stated) , answer whether its Cmax meets or surpasses 500 nM.
Result: class 0

Task: In plain terms: is recorded Cmax at least 500 nM for CCC1=C2C(Nc3ccc4c(cnn4Cc4ccccc4)c3)=NC=NC2N=C1NC(=O)OCC1CCCNC1 (configuration not stated) ?
Result: class 1

Task: Please tell me: is the compound CCC1=C2C(Nc3ccc4c(cnn4Cc4ccccc4)c3)=NC=NC2N=C1NC(=O)OCCC1CCNCC1 (configuration not stated) at or over 500 nM in terms of Cmax?
Result: class 0

Task: Determine whether this compound has Cmax no lower than 500 nM: Cc1c(NC(=O)OC[C@@H]2COCCN2)cn2ncnc(Nc3ccc4c(cnn4Cc4cccc(F)c4)c3)c12
Result: class 1

Task: In plain terms: is recorded Cmax at least 500 nM for CCC1=C2C(Nc3ccc4c(cnn4Cc4ccccc4)c3)=NC=NC2N=C1NC(=O)OCCN1CCCCC1 (configuration not stated) ?
Result: class 1
